Assay text: Single dose PK, phase 1, healthy Japanese men
Assay type: in vivo, human
Test context: male, human, plasma, sc, SC bolus, read-out: Median Tmax, range over cohorts
Where a SMILES comes first, the peptide text is derived from it. [ ]: non-standard residue; d: D form. Arg(Me) = CNC(=N)NCCC[C@H](N)C(=O)O; Hyp = O=C(O)[C@@H]1C[C@@H](O)CN1; azaGly = NNC(=O)O
Assay endpoint: Tmax

Q: Identify measured Tmax corresponding to CC(=O)O.CNC(=N)NCCC[C@H](NC(=O)[C@H](CC(C)C)NC(=O)NNC(=O)[C@H](Cc1ccccc1)NC(=O)[C@@H](NC(=O)[C@H](CC(N)=O)NC(=O)[C@@H]1C[C@@H](O)CN1C(=O)[C@@H](Cc1ccc(O)cc1)NC(C)=O)[C@@H](C)O)C(=O)N[C@@H](Cc1c[nH]c2ccccc12)C(N)=O [API-MA] (Ac-[dY][Hyp]NTF[azaGly]L[Arg(Me)]W-NH2)
Ans: 22.5 to 45 min

---

Assay text: Multiple-dose PK, SC bolus then continuous 13-day SC infusion, healthy European men
Test context: male, human, plasma, sc, 1 mg/day
Where a SMILES comes first, the peptide text is derived from it. [ ]: non-standard residue; d: D form. Arg(Me) = CNC(=N)NCCC[C@H](N)C(=O)O; Hyp = O=C(O)[C@@H]1C[C@@H](O)CN1; azaGly = NNC(=O)O
Assay endpoint: CL/F (mL/min)
Express the result in mL/min but write the number alone.

Q: Indicate its recorded CL/F; the compound in question is CC(=O)O.CNC(=N)NCCC[C@H](NC(=O)[C@H](CC(C)C)NC(=O)NNC(=O)[C@H](Cc1ccccc1)NC(=O)[C@@H](NC(=O)[C@H](CC(N)=O)NC(=O)[C@@H]1C[C@@H](O)CN1C(=O)[C@@H](Cc1ccc(O)cc1)NC(C)=O)[C@@H](C)O)C(=O)N[C@@H](Cc1c[nH]c2ccccc12)C(N)=O [API-MA] (Ac-[dY][Hyp]NTF[azaGly]L[Arg(Me)]W-NH2)
Ans: 305

---

Assay text: 1-month depot PK, prostate cancer patients
Format: in vivo, human
Test context: male, human, plasma, sc, 24 mg/month, prostate cancer patients, 1-month depot SC 24 mg/month, geometric mean; read-out: AUC (0-29 d) (converted)
Where a SMILES comes first, the peptide text is derived from it. [ ]: non-standard residue; d: D form. Arg(Me) = CNC(=N)NCCC[C@H](N)C(=O)O; Hyp = O=C(O)[C@@H]1C[C@@H](O)CN1; azaGly = NNC(=O)O
Assay endpoint: AUC(0-t) (ng·h/mL)
// return numeric value only (unit: ng·h/mL, not printed)

Q: Find the measured AUC(0-t) of CC(=O)O.CNC(=N)NCCC[C@H](NC(=O)[C@H](CC(C)C)NC(=O)NNC(=O)[C@H](Cc1ccccc1)NC(=O)[C@@H](NC(=O)[C@H](CC(N)=O)NC(=O)[C@@H]1C[C@@H](O)CN1C(=O)[C@@H](Cc1ccc(O)cc1)NC(C)=O)[C@@H](C)O)C(=O)N[C@@H](Cc1c[nH]c2ccccc12)C(N)=O [API-MA] (Ac-[dY][Hyp]NTF[azaGly]L[Arg(Me)]W-NH2) and report it.
Ans: 209

---

Assay text: Single dose PK, phase 1, healthy Japanese men
Assay type: in vivo, human
Test context: male, human, plasma, sc, 0.25 mg, single 2-hour SC INF 0.25 mg (plasma N = 1), read-out: T½ (converted)
Where a SMILES comes first, the peptide text is derived from it. [ ]: non-standard residue; d: D form. Arg(Me) = CNC(=N)NCCC[C@H](N)C(=O)O; Hyp = O=C(O)[C@@H]1C[C@@H](O)CN1; azaGly = NNC(=O)O
Assay endpoint: half-life (h)
A number alone suffices; assume h.

Q: Write down half-life measured for item CC(=O)O.CNC(=N)NCCC[C@H](NC(=O)[C@H](CC(C)C)NC(=O)NNC(=O)[C@H](Cc1ccccc1)NC(=O)[C@@H](NC(=O)[C@H](CC(N)=O)NC(=O)[C@@H]1C[C@@H](O)CN1C(=O)[C@@H](Cc1ccc(O)cc1)NC(C)=O)[C@@H](C)O)C(=O)N[C@@H](Cc1c[nH]c2ccccc12)C(N)=O [API-MA] (Ac-[dY][Hyp]NTF[azaGly]L[Arg(Me)]W-NH2)
Ans: 3.77
